Method description: Half life in Sprague-Dawley rat at 2 mg/kg, iv measured upto 24 hrs by LC-MS/MS analysis
Format: ADME, organism-based
Conditions used: Sprague-Dawley, in vivo
Measured attribute: half-life (min)

Smiles input	Units	Test result
C=CC(=O)N1CCC[C@@H](n2nc(-c3ccc(Oc4ccccc4)cc3)c3c(N)n[nH]c(=O)c32)C1	min	19.2

----------
molecules and their reported half-life
Method description: Half life in BALB/c mouse at 1 mg/kg, iv measured upto 24 hrs by LC-MS/MS analysis
Format: ADME, organism-based
Conditions used: in vivo

Smiles input	half-life (min)
C=CC(=O)N1CCC[C@@H](n2nc(-c3ccc(Oc4ccccc4)cc3)c3c(N)ncnc32)C1	20.4
C=CC(=O)N1CCC[C@@H](n2nc(-c3ccc(Oc4ccccc4)cc3)c3c(N)n[nH]c(=O)c32)C1	25.2
